assay name: melting temperature; melt of duplexes
applied conditions: sodium 0.0675 M; strand 1 µM
Documented Tm across a set of substances
Give the quantity in °C, number only.

CGACGTGCGTTATGTGCTG+CAGCACATGAGGCACGTCG ((((((((.(.((((((((+)))))))).).)))))))) = 54.1
CGACGTGCGAAATGTGCTG+CAGCACATTGGGCACGTCG ((((((((..(((((((((+)))))))))..)))))))) = 54.5
CGACGTGCCAAATGTGCTG+CAGCACATCGCGCACGTCG ((((((((...((((((((+))))))))...)))))))) = 48.2
CGACGTGCTTAATGTGCTG+CAGCACATCTTGCACGTCG ((((((((...((((((((+))))))))...)))))))) = 48.9
CGACGTGCACTATGTGCTG+CAGCACATAACGCACGTCG ((((((((..(((((((((+)))))))))..)))))))) = 46.2
CGACGTGCGGAATGTGCTG+CAGCACATCCGGCACGTCG ((((((((.(.((((((((+)))))))).).)))))))) = 55.7

Okay, now this substance:
For the substance CGACGTGCTACATGTGCTG+CAGCACATTGTGCACGTCG ((((((((...((((((((+))))))))...)))))))) , what Tm is on record?
48.7

Ref: the array DNA melting data of Ke et al.
